Entries annotated with measured T/C
- System: L1210 leukemia ip in BDF1 mice, survival T/C
- assay.comment: NCI In Vivo Anticancer Drug Screen. Data for tumor model L1210 Leukemia (intraperitoneal) in B6D2F1 (BDF1) mice
- experimental.conditions: endpoint: mean survival time; dose: 100.0 mg/kg/injection; schedule: Q04DX002 (ip); vehicle: saline; higher = longer survival
Toxic doses and inconclusive results are not listed.

See these solved cases before continuing.
compound	measured.on	T/C
OCC[N+]12CN3CN(CN(C3)C1)C2	L1210 leukemia ip in BDF1 mice, survival T/C	113 % of control
CCS(=O)(=O)/C=C/c1cccnc1	L1210 leukemia ip in BDF1 mice, survival T/C	96 % of control
COP(=O)(O)CC(C)=O (tested in a mixture with another compound)	L1210 leukemia ip in BDF1 mice, survival T/C	101 % of control
C#CCN(CC#C)C(C)=O	L1210 leukemia ip in BDF1 mice, survival T/C	91 % of control
CC1CNC(=O)O1 (configuration not stated)	L1210 leukemia ip in BDF1 mice, survival T/C	100 % of control
CC1(C)C2CCC1(C)C(C(=O)C(F)(F)F)C2=O.CC1(C)C2CCC1(C)C(C(=O)C(F)(F)F)C2=O.[Co] (configuration not stated)	L1210 leukemia ip in BDF1 mice, survival T/C	110 % of control

// below: T/C requested for another compound
T/C lookup needed for CC(C(=O)O)C(C)(O)C(C)(C)C (configuration not stated) , thanks.
104 % of control

###

Entries annotated with measured T/C
- System: L1210 leukemia ip in BDF1 mice, survival T/C
- assay.comment: NCI In Vivo Anticancer Drug Screen. Data for tumor model L1210 Leukemia (intraperitoneal) in B6D2F1 (BDF1) mice
- experimental.conditions: endpoint: mean survival time; dose: 200.0 mg/kg/injection; schedule: Q04DX003 (ip); vehicle: saline; higher = longer survival
Inconclusive results and toxic doses are left out.

See these solved cases before continuing.
compound	T/C
O=C(C[n+]1cccc(C(=O)Nc2ccccc2)c1)Nc1ccc(Cl)cc1	98 % of control
CCOC(=O)C1CCC(=O)NC1=O (stereo not given)	102 % of control
COc1ccc(NC(=O)Nc2cc(Cl)ccc2OC)c(Cl)c1	98 % of control
COB(CCCCB(OC)OC)OC	107 % of control

T/C lookup needed for CC(CC#N)NCC[P+](c1ccccc1)(c1ccccc1)c1ccccc1 (stereo not given) , thanks.
96 % of control

###

- Test system: L1210 leukemia ip in BDF1 mice, survival T/C
- assay.comment: NCI In Vivo Anticancer Drug Screen. Data for tumor model L1210 Leukemia (intraperitoneal) in B6D2F1 (BDF1) mice
- experimental.conditions: endpoint: mean survival time; dose: 200.0 mg/kg/injection; schedule: Q01DX009 (ip); vehicle: Klucel (hydroxypropylcellulose) (HPC); higher = longer survival
Inconclusive results and toxic doses are left out.
Entries annotated with measured T/C

molecule	measured.on	recorded.value
CCOC(=O)c1cc(OC(C)=O)c2c(ccc3ccccc32)c1C	L1210 leukemia ip in BDF1 mice, survival T/C	88 % of control
CN(C)c1ccc(C=O)c([N+](=O)[O-])c1	L1210 leukemia ip in BDF1 mice, survival T/C	101 % of control
CCOC(=O)c1ccc(NC(=O)Oc2ccc(C(=O)OC)cc2)cc1	L1210 leukemia ip in BDF1 mice, survival T/C	95 % of control
Cc1ccc(NC(=O)c2c(Br)c(Br)c(Br)c(Br)c2C(=O)O)cc1Cl	L1210 leukemia ip in BDF1 mice, survival T/C	96 % of control

What value of T/C on L1210 leukemia ip in BDF1 mice, survival T/C does COc1cc(C)c(C2NC(=O)c3ccccc3N2)cc1C (stereo unspecified) have?
100 % of control

What value of T/C on L1210 leukemia ip in BDF1 mice, survival T/C does `Cc1cc(=O)n(Cc2ccccc2)c(O)c1C` have?
91 % of control

What value of T/C on L1210 leukemia ip in BDF1 mice, survival T/C does O=C(N/N=C/c1ccco1)C1CCCO1 (stereo unspecified) have?
106 % of control

What value of T/C on L1210 leukemia ip in BDF1 mice, survival T/C does `CCCCOC(=O)c1ccc(OC(=O)Nc2cccc(Cl)c2)cc1` have?
102 % of control

What value of T/C on L1210 leukemia ip in BDF1 mice, survival T/C does `O=c1c2ccccc2sc2c(CO)ccc(NCCN3CCCCC3)c12` have?
120 % of control

What value of T/C on L1210 leukemia ip in BDF1 mice, survival T/C does `Cc1cccc(C)c1NC(=O)N(Cc1ccccc1)Cc1ccccc1` have?
112 % of control

What value of T/C on L1210 leukemia ip in BDF1 mice, survival T/C does `NS(=O)(=O)c1ccc(N=Cc2ccc3c(c2)OCO3)cc1` have?
92 % of control

What value of T/C on L1210 leukemia ip in BDF1 mice, survival T/C does `CC1(C(Cl)Cl)C=CC(=O)C=C1` have?
87 % of control

What value of T/C on L1210 leukemia ip in BDF1 mice, survival T/C does `O=C(O)CCCCCNC(=O)c1ccccc1` have?
93 % of control

What value of T/C on L1210 leukemia ip in BDF1 mice, survival T/C does CC(C)=CCC(=O)NCC(CCN1CCCCC1)(c1cccc2ccccc12)C(C)C (stereo unspecified) have?
90 % of control

What value of T/C on L1210 leukemia ip in BDF1 mice, survival T/C does `CC(C)(C)c1cccc(S(=O)(=O)Oc2ccccc2[N+](=O)[O-])c1` have?
93 % of control

What value of T/C on L1210 leukemia ip in BDF1 mice, survival T/C does c1ccc(N2N=NC3C4CC(C5COCC54)C32)cc1 (stereo unspecified) have?
121 % of control
